Sourced from the supplement of paper PMC8728848

target: Gal(b1-4)GlcNAc(b1-3)GalNAc; test: glycan array binding signal (z-score within array); higher = stronger binding; settings: glycan notation: IUPAC condensed, linker removed
About 410 targets per protein were measured; listed, in parts, are those with the strongest signals and a random draw of the rest.
Threshold check on glycan array binding signal (z-score): at or above -0.2 gives 1.0, strictly below gives 0.0.

As a guide, the following entries are already answered.
| binder | classAssignment |
| --- | --- |
| FBG1 (Homo sapiens), Q9UK22 (protein) MDGDGDPESVGQPEEASPEEQPEEASAEEERPEDQQEEEAAAAAAYLDELPEPLLLRVLAALPAAELVQACRLVCLRWKELVDGAPLWLLKCQQEGLVPEGGVEEERDHWQQFYFLSKRRRNLLRNPCGEEDLEGWCDVEHGGDGWRVEELPGDSGVEFTHDESVKKYFASSFEWCRKAQVIDLQAEGYWEELLDTTQPAIVVKDWYSGRSDAGCLYELTVKLLSEHENVLAEFSSGQVAVPQDSDGGGWMEISHTFTDYGPGVRFVRFEHGGQDSVYWKGWFGARVTNSSVWVEP | 1.0 |
| ASA (Allium sativum) (protein) KAHEKERMGRNTPSAKLMSIAAVAAILTILASTCMARNLLTNGEGLYAGQSLNVEPYHFIMQEDCNLVLYDHSTAVWATNTDIPGKKECRAVLQSDGNFVVYDADGRPLWASHSVRGNGNYVLVLQEDGNVVIYGSDIWSTGTYVKAARGPVVVAMNGTVDGGSLIRPVIVNKNHVPVIRKVGTLSRNILRNDEGLYAGQSLDVEPYHFIMHEDCNLVLYDHSTAVWASNTDIPGKKGCKAVLQSDGNFVVYDAEGRSLWASHSVRGNGNYVLVLQEDGNVVIYGSDIWSTDTYRKSARGPVIRKVGTLAGAA | 0.0 |
| RNase 1 (Bos taurus), P61823 (protein) MALKSLVLLSLLVLVLLLVRVQPSLGKETAAAKFERQHMDSSTSAASSSNYCNQMMKSRNLTKDRCKPVNTFVHESLADVQAVCSQKNVACKNGQTNCYQSYSTMSITDCRETGSSKYPNCAYKTTQANKHIIVACEGNPYVPVHFDASV | 0.0 |
| Agalectin (Anopheles gambiae) (protein) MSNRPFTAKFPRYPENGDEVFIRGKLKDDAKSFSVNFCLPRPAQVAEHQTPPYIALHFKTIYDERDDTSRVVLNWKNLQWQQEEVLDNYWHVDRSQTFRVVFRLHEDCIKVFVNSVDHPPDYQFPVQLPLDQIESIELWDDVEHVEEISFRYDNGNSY | 0.0 |

Let us examine a further case.
Ask | Say whether CLL-1 (Homo sapiens) (protein) MWIDFFTYSSMSEEVTYADLQFQNSSEMEKIPEIGKFGEKAPPAPSHVWRPAALFLTLLCLLLLIGLGVLASMFHVTLKIEMKKMNKLQNISEELQRNISLQLMSNMNISNKIRNLSTTLQTIATKLCRELYSKEQEHKCKPCPRRWIWHKDSCYFLSDDVQTWQESKMACAAQNASLLKINNKNALEFIKSQSRSYDYWLGLSPEEDSTRGMRVDNIINSSAWVIRNAPDLNNMYCGYINRLYVQYYHCTYKKRMICEKMANPVQLGSTYFREA shows glycan array binding signal (z-score) of -0.2 or more.
Reply | 0.0
